Tested on: Streptococcus
assay.comment: Group A Streptococcus viability loss, dose response, counter-screen for streptokinase expression inhibitor project, luminescence, BacTiterGlo (AID 1915);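 further: potency for reduction of bacterial viability or growth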
Format: functional, organism-based
The source made the active and inactive calls.
reported.property: EC50

[
  {
    "molecule": "Cc1ccccc1Oc1nc(-c2ccccn2)nc2ccccc12",
    "system.name": "Streptococcus",
    "EC50": "18.5 µM (active)"
  },
  {
    "molecule": "O=C(Nc1cccnc1)Nc1cc(Cl)cc(Cl)c1",
    "system.name": "Streptococcus",
    "EC50": "85.4 µM (active)"
  },
  {
    "molecule": "Cc1nc(N2CCC(C)CC2)c2c(C)c(C(=O)Nc3ccccc3C(F)(F)F)sc2n1",
    "system.name": "Streptococcus",
    "EC50": "41.5 µM (active)"
  },
  {
    "molecule": "CCc1ccc(-c2ccc3nnc(SCC(N)=O)n3n2)cc1",
    "system.name": "Streptococcus",
    "EC50": "18.6 µM (active)"
  },
  {
    "molecule": "CCCCCc1ccc(OCCOCC[n+]2cn(C)c3ccccc32)c(CCCCC)c1",
    "system.name": "Streptococcus",
    "EC50": "16.1 µM (inconclusive)"
  },
  {
    "molecule": "CCOc1ccc(/C=C2/Sc3ccc(C(=O)N4CCN(C(=O)c5ccco5)CC4)cc3N(C)C2=O)cc1OC",
    "system.name": "Streptococcus",
    "EC50": "5.98 µM (active)"
  }
]

Please state, for each entry, its recorded EC50.
1. CCCCC(=O)O[C@H]1CC[C@H]2[C@@H]3CCc4cc(O)ccc4[C@H]3CC[C@]12C [ESTRADIOL VALERATE]
2. Cc1cc(Br)cc(/C=N/NC(=O)c2ccc3c(c2)OCO3)c1O
3. CC(C)CC(=O)NC(N=C(S)Nc1sc2c(c1C#N)CCCC2)C(Cl)(Cl)Cl (configuration not stated)
4. CC(C)c1ccc(NC(=O)NC(C)c2ccc3c(c2)OCO3)cc1 (configuration not stated)
5. CCCCc1nc(NCc2ccccc2)c(C#N)c2c1CCCC2

1. 2.29 µM (active)
2. 3.25 µM (active)
3. 6.32 µM (active)
4. > 150 µM (not active)
5. 19.1 µM (active)

# EC50 lookup, item `Oc1c(Cl)cc(Cl)c(Cl)c1Cc1c(O)c(Cl)cc(Cl)c1Cl`
0.262 µM (active)

----------
system.name: ATP-dependent molecular chaperone HSP82 (Candida albicans (strain WO-1) (Yeast), UniProt C4YTQ8)
Sequence (C4YTQ8 whole entry): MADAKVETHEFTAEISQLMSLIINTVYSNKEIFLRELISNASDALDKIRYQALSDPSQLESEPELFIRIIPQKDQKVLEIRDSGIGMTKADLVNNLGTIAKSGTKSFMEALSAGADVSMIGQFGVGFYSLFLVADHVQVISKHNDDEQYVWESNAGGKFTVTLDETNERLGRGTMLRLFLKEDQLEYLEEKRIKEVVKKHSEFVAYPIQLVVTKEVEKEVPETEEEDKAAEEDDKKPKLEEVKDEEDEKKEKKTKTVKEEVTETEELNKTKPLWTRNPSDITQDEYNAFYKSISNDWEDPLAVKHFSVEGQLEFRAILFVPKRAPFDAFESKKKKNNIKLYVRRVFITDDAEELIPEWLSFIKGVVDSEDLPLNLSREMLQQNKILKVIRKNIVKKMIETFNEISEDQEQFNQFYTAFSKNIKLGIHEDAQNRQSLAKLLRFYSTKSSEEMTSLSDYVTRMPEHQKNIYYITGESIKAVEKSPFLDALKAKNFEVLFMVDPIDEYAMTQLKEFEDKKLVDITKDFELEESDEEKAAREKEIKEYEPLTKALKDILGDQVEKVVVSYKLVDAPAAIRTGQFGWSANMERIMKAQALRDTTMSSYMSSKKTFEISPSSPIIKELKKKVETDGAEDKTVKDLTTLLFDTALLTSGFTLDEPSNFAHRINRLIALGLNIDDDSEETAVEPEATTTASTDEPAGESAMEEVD
assay.comment: loss of DOC-induced GRE-beta-galactosidase reporter signal, dose response, Hsp90 inhibitor project, S. cerevisiae, luminescence (AID 2400);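 further: beta-galactosidase luminescence from glucocorticoid response element reporter as proxy for Hsp90 function; inhibitor potency where signal loss means Hsp90 inhibition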
Format: functional, cell-based
The source made the active and inactive calls.
// one of yes (1) = active, no (0) = inactive, no free text

[
  {
    "compound": "CC[n+]1c(/C=C2\\SC(c3ccccc3C)=CN2C)sc2ccccc21",
    "group.label": "no (0)"
  },
  {
    "compound": "O=C(NNc1nc2ccc(Cl)cc2s1)c1cc(-c2cccs2)nc2ccccc12",
    "group.label": "yes (1)"
  },
  {
    "compound": "CCCC(=O)NC(c1ccc(C(C)C)cc1)c1ccc2cccnc2c1O (stereo unspecified)",
    "group.label": "no (0)"
  },
  {
    "compound": "Cc1cccc2sc(NNC(=O)c3cc(-c4cccs4)nc4ccccc34)nc12",
    "group.label": "yes (1)"
  },
  {
    "compound": "O=C(Nc1nnc(-c2ccc3c(c2)CCCC3)o1)c1ccccc1",
    "group.label": "yes (1)"
  }
]

Here's the next entry for you.
Would you mind telling me which call this test gave `Cc1cc(C)n(-c2nc3ccccc3c(=O)n2OCC#N)n1` ?
no (0)

----------
system.name: RNA-binding protein pos-1 (Caenorhabditis elegans, UniProt G5EF15)
Sequence (G5EF15 whole entry, the tested form may be a part): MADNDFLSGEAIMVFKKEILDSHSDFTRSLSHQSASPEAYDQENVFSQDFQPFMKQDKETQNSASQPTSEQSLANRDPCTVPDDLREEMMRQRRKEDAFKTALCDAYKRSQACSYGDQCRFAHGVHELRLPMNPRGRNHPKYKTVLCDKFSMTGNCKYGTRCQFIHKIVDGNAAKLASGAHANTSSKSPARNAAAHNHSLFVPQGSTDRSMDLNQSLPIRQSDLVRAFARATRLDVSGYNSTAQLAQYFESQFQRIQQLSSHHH
assay.comment: inhibitors of POS-1/mex-3 RNA binding, dose response, biochemical, fluorescence polarization (AID 1964);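 further: purified POS-1 fused to maltose binding protein made in E. coli; potency of compounds blocking POS-1 binding to fluorescent RNA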
Active and inactive are the calls of the source.
For each entry below, report its EC50 value.

Take a look at these entries with their results.
[
  {
    "molecule": "Cc1noc(/C=C/N(C)C)c1S(=O)(=O)N1CCC(C(=O)O)CC1",
    "system.name": "RNA-binding protein pos-1 (Caenorhabditis elegans, UniProt G5EF15)",
    "reported.property": "EC50",
    "result": "> 300 µM (not active)"
  },
  {
    "molecule": "CC1(OC(=O)c2ccc(Cl)nc2)C(=O)C=C2C=C(C3CC3)OC=C2C1=O (stereo unspecified)",
    "system.name": "RNA-binding protein pos-1 (Caenorhabditis elegans, UniProt G5EF15)",
    "reported.property": "EC50",
    "result": "15.1 µM (active)"
  },
  {
    "molecule": "CSc1nnc(N2C(=O)C(O)=C(C(=O)c3ccco3)C2c2ccccc2)s1 (stereo unspecified)",
    "system.name": "RNA-binding protein pos-1 (Caenorhabditis elegans, UniProt G5EF15)",
    "reported.property": "EC50",
    "result": "> 300 µM (inconclusive)"
  },
  {
    "molecule": "C1=C(c2ccccc2)Nc2nnnn2C1c1cccs1 (stereo unspecified)",
    "system.name": "RNA-binding protein pos-1 (Caenorhabditis elegans, UniProt G5EF15)",
    "reported.property": "EC50",
    "result": "> 300 µM (not active)"
  },
  {
    "molecule": "O=C1C([N+](=O)[O-])=C(O)c2cccc3cccc1c23",
    "system.name": "RNA-binding protein pos-1 (Caenorhabditis elegans, UniProt G5EF15)",
    "reported.property": "EC50",
    "result": "12.6 µM (active)"
  },
  {
    "molecule": "Oc1c(Cl)cc(Cl)c(Cl)c1Cc1c(O)c(Cl)cc(Cl)c1Cl [HEXACHLOROPHENE]",
    "system.name": "RNA-binding protein pos-1 (Caenorhabditis elegans, UniProt G5EF15)",
    "reported.property": "EC50",
    "result": "45.4 µM (inconclusive)"
  },
  {
    "molecule": "COC(=O)CCCC1=CC2=CC(=O)C(C)(O)C(=O)C2=CO1 (stereo unspecified)",
    "system.name": "RNA-binding protein pos-1 (Caenorhabditis elegans, UniProt G5EF15)",
    "reported.property": "EC50",
    "result": "> 300 µM (not active)"
  },
  {
    "molecule": "CCN(CC)C(=O)c1ccc2c(c1)C1C=CCC1C(C(=O)O)N2 (stereo unspecified)",
    "system.name": "RNA-binding protein pos-1 (Caenorhabditis elegans, UniProt G5EF15)",
    "reported.property": "EC50",
    "result": "11.2 µM (active)"
  }
]

Please state, for each entry, its recorded EC50.
1. Oc1ccc(NC(=S)N=Nc2c(O)[nH]c3ccccc23)cc1
2. CC1=NN(C(N)=S)C(=O)C1N=Nc1c(Cl)cc([N+](=O)[O-])cc1Cl (stereo unspecified)
3. CCc1ccc(S(=O)(=O)Nc2cc(SCC(=O)O)c(O)c3ccccc23)cc1

["16.3 µM (active)", "> 300 µM (not active)", "35.5 µM (active)"]

----------
system.name: Caspase-6 (Homo sapiens, UniProt P55212)
assay.comment: human caspase-6 inhibitors, dose response, biochemical, VEID-R110 fluorescence, cherry-pick (AID 720632)
Activity calls are given as the source filed them.
reported.property: AC50

[
  {
    "compound": "CC(C)CN1C(=O)NC2(CCCc3ccccc32)C1=O (centres undefined)",
    "AC50": "51.7 µM (active)"
  },
  {
    "compound": "O=[N+]([O-])c1ccc(Sc2cccc[n+]2[O-])c2nonc12",
    "AC50": "7.21 µM (active)"
  },
  {
    "compound": "COc1cc(C(=O)OCC(=O)N2CCCC2=O)cc(OC)c1C",
    "AC50": "18.5 µM (active)"
  }
]

# ---- query compound ----
# AC50 lookup, item O=C1C2C(C(=O)N1/N=C/c1cc([N+](=O)[O-])c(O)cc1O)C1C=CC2C12CC2 (centres undefined)
3.41 µM (active)

----------
For each entry below, report its EC50 value.
assay.comment: inhibitors of intracellular T. cruzi replication, confirmation, NIH3T3 host cells, beta-gal luminescence (AID 2044);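 further: intracellular parasites grown in NIH/3T3 mouse fibroblasts as host cells; luminescent beta-galactosidase reporter signal from transgenic T. cruzi replicating inside host cells; inhibitors lower the luminescence signal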
Assay type: functional, cell-based
The source made the active and inactive calls.

Take a look at these entries with their results.
[
  {
    "compound": "CCN(CC(O)CON=C1c2ccccc2-c2ccccc21)S(=O)(=O)c1ccc(C)cc1 (stereo not given)",
    "EC50": "1.68 µM (active)"
  },
  {
    "compound": "CCCC(=O)NC(c1ccc(C(C)C)cc1)c1ccc2cccnc2c1O (stereo not given)",
    "EC50": "0.227 µM (active)"
  },
  {
    "compound": "CN(C)CCn1c(=O)n(Cc2ccccc2)c(=O)c2c3c(sc21)CCCCC3",
    "EC50": "0.505 µM (active)"
  },
  {
    "compound": "CC(C)(C)NS(=O)(=O)c1ccc(NC(=O)c2cc(-c3ccccc3)nc3ccccc23)cc1",
    "EC50": "2.03 µM (active)"
  }
]

# ---- query compound ----
# EC50 lookup, item `Cc1cc(C)n(-c2nc3ccccc3c(=O)n2OCC#N)n1`
1.14 µM (active)
